system: Dopamine Receptor; experiment: Dopamine receptor blocking activity in the CNS: inhibition of apomorphine induced climbing in the mouse; assay type: in vivo; settings: s.c. (table footnote), apomorphine 1 mg/kg s.c. induced climbing
Catalogue of CNS activity (ED50) values

{"compound": "CCS(=O)(=O)c1cc(C(=O)N[C@@H]2C[C@H]3CC[C@@H](C2)N3Cc2ccccc2)c(OC)cc1N", "unit.of.measurement": "mg/kg", "CNS activity (ED50)": 3.5}
{"compound": "COc1cc(N)c(Cl)cc1C(=O)N[C@@H]1C[C@H]2CC[C@@H](C1)N2Cc1ccccc1 [Compound A', reference compound]", "unit.of.measurement": "mg/kg", "CNS activity (ED50)": 0.0029}
{"compound": "COc1cc(N)c(S(C)(=O)=O)cc1C(=O)N[C@@H]1C[C@H]2CC[C@@H](C1)N2C", "unit.of.measurement": "mg/kg", "CNS activity (ED50)": 80}
{"compound": "COc1cc(N)c(S(C)(=O)=O)cc1C(=O)N[C@@H]1C[C@H]2CC[C@@H](C1)N2Cc1ccccc1", "unit.of.measurement": "mg/kg", "CNS activity (ED50)": 3.5}
